system: Staphylococcus aureus; assay: Antimicrobial activity against Staphylococcus aureus (Oxford) NCTC 6571 after 18 hrs by micro dilution method; type: functional; conditions: (Oxford) NCTC 6571, 18 h
testReadout: MIC (mg/L)
State the answer as a number, implicitly in mg/L.

Solved entries (count: 2):
molecule | MIC [mg/L]
O=C(O)c1cn(C2CC2)c2cc(N3CCNCC3)c(F)cc2c1=O | 0.25
O=C(O)CC(O)(CC(=O)NCC(=O)N1CCN(c2cc3c(cc2F)c(=O)c(C(=O)O)cn3C2CC2)CC1)C(=O)O (racemic) | 16

Next molecule, please.
Q: Give the measured MIC for O=C(O)CC(O)(CC(=O)N1CCN(c2cc3c(cc2F)c(=O)c(C(=O)O)cn3C2CC2)CC1)C(=O)O (centres undefined)
Ans: 16

* * *

tested on: Staphylococcus aureus; experiment: Antimicrobial activity against Staphylococcus aureus NCTC 13142 after 18 hrs by micro dilution method; format: functional; settings: NCTC 13142, 18 h
testReadout: MIC (µg/mL)
State the answer as a number, implicitly in µg/mL.

Q: Give the measured MIC for O=C(O)CC(O)(CC(=O)NCC(=O)N1CCN(c2cc3c(cc2F)c(=O)c(C(=O)O)cn3C2CC2)CC1)C(=O)O (racemic)
Ans: 16

Q: Give the measured MIC for O=C(O)c1cn(C2CC2)c2cc(N3CCNCC3)c(F)cc2c1=O
Ans: 0.5

Q: Give the measured MIC for O=C(O)CC(O)(CC(=O)N1CCN(c2cc3c(cc2F)c(=O)c(C(=O)O)cn3C2CC2)CC1)C(=O)O (centres undefined)
Ans: 8

* * *

tested on: Burkholderia cepacia; assay: Antimicrobial activity against Burkholderia cepacia BIG 121 after 18 hrs by micro dilution method; type: functional; conditions: BIG 121, 18 h
testReadout: MIC

molecule | observed
O=C(O)c1cn(C2CC2)c2cc(N3CCNCC3)c(F)cc2c1=O [CIPROFLOXACIN] | 8 µg/mL
O=C(O)CC(O)(CC(=O)N1CCN(c2cc3c(cc2F)c(=O)c(C(=O)O)cn3C2CC2)CC1)C(=O)O (centres undefined) | > 36 µg/mL
O=C(O)CC(O)(CC(=O)NCC(=O)N1CCN(c2cc3c(cc2F)c(=O)c(C(=O)O)cn3C2CC2)CC1)C(=O)O (racemic) | > 36 µg/mL

Next molecule, please.
Q: Supply MIC measured with Burkholderia cepacia for O=C(O)CC(O)(CC(=O)NCCCCC(=O)N1CCN(c2cc3c(cc2F)c(=O)c(C(=O)O)cn3C2CC2)CC1)C(=O)O (racemic) .
Ans: > 36 µg/mL

* * *

tested on: Staphylococcus aureus; assay: Antimicrobial activity against Staphylococcus aureus NCTC 13143 after 18 hrs by micro dilution method; format: functional; settings: NCTC 13143, 18 h
testReadout: MIC

Solved entries (count: 2):
compound | MIC
O=C(O)CC(O)(CC(=O)NCCCCC(=O)N1CCN(c2cc3c(cc2F)c(=O)c(C(=O)O)cn3C2CC2)CC1)C(=O)O (racemic) | > 36 µg/mL
O=C(O)CC(O)(CC(=O)N1CCN(c2cc3c(cc2F)c(=O)c(C(=O)O)cn3C2CC2)CC1)C(=O)O (centres undefined) | > 36 µg/mL

Q: Give the measured MIC for O=C(O)CC(O)(CC(=O)NCC(=O)N1CCN(c2cc3c(cc2F)c(=O)c(C(=O)O)cn3C2CC2)CC1)C(=O)O (racemic)
Ans: > 36 µg/mL

Q: Give the measured MIC for O=C(O)c1cn(C2CC2)c2cc(N3CCNCC3)c(F)cc2c1=O
Ans: > 36 µg/mL

* * *

tested on: Stenotrophomonas maltophilia; experiment: Antimicrobial activity against Stenotrophomonas maltophilia N1124 after 18 hrs by micro dilution method; type: functional; conditions: N1124, 18 h
testReadout: MIC (µg/mL)
State the answer as a number, implicitly in µg/mL.

Q: Give the measured MIC for O=C(O)c1cn(C2CC2)c2cc(N3CCNCC3)c(F)cc2c1=O
Ans: 4

Q: Give the measured MIC for O=C(O)CC(O)(CC(=O)NCC(=O)N1CCN(c2cc3c(cc2F)c(=O)c(C(=O)O)cn3C2CC2)CC1)C(=O)O (racemic)
Ans: 32
